# System: Plasmodium falciparum
# assay comment: Screen against P. falciparum Asexual Blood Stage (ABS), at 5uM
# Format: functional, Dd2
# measurement setup: tested at 5 uM
Screen size: about 65,000 compounds; about 2,100 (3.2%) showed an effect of 50% or more. The median lay at about -52%. Many of the other results were omitted from the sample, so strong results are more common in it than they were.
# reported INHIBITION; entries follow
Numeric only. Scale: %

Query: Test system Plasmodium falciparum; read-out INHIBITION; what value for NCC1Cc2cc(-c3nccc(N4CCC(O)CC4)n3)cc(F)c2O1 (configuration not stated) ?
Result: 83.1

Query: Test system Plasmodium falciparum; read-out INHIBITION; what value for Cc1ccc(CNCc2cccc3cccnc23)c(OC2CCOC2)c1 (configuration not stated) ?
Result: 85.4

----------
# System: Plasmodium falciparum
# assay comment: Screen against P. falciparum Asexual Blood Stage (ABS), at 5uM
# Type: functional, Dd2
# measurement setup: tested at 5 uM
Out of some 65,000 compounds screened, about 2,100 (3.2%) showed an effect of 50% or more. The median lay at about -52%. The list comes from a sample in which strong results are over-represented; it also holds close analogues and randomly drawn compounds.
# reported INHIBITION; entries follow
Numeric only. Scale: %

Query: Test system Plasmodium falciparum; read-out INHIBITION; what value for `c1c[nH]c2nc(C3CCNCC3)nc-2c1` ?
Result: -162

Query: Test system Plasmodium falciparum; read-out INHIBITION; what value for c1ccc(CN2C[C@@H]3OCCN(CC4CCCO4)[C@@H]3C2)nc1 (stereo partly specified) ?
Result: -0.326

Query: Test system Plasmodium falciparum; read-out INHIBITION; what value for Cn1ccnc1CNC1CCCOc2c1ccc1ccccc21 (stereo unspecified) ?
Result: 77.2

Query: Test system Plasmodium falciparum; read-out INHIBITION; what value for `CS(=O)(=O)N1CCC2(CCCN(Cc3ccccn3)C2)CC1` ?
Result: -200

Query: Test system Plasmodium falciparum; read-out INHIBITION; what value for `CCN1CCC(c2cncc(N(C)C)n2)CC1` ?
Result: -163

Query: Test system Plasmodium falciparum; read-out INHIBITION; what value for `CCCC(=O)NS(=O)(=O)c1ccc(C#N)c(C(F)(F)F)c1` ?
Result: -56

Query: Test system Plasmodium falciparum; read-out INHIBITION; what value for `O[C@]12CCNC[C@H]1CN(c1ncccc1Cl)CC2` ?
Result: -135

Query: Test system Plasmodium falciparum; read-out INHIBITION; what value for COc1cccc(CN2CCC(c3nn(CCN)c4nccnc34)C2)c1 (stereo unspecified) ?
Result: 89.1

Query: Test system Plasmodium falciparum; read-out INHIBITION; what value for `O[C@]12CCNC[C@H]1CN(c1nccc3ccccc13)CC2` ?
Result: -5.03

Query: Test system Plasmodium falciparum; read-out INHIBITION; what value for c1cnc(N2CCOCC3(CCCN(Cc4cc[nH]n4)C3)C2)nc1 (stereo unspecified) ?
Result: -63.1

Query: Test system Plasmodium falciparum; read-out INHIBITION; what value for `Cc1cc(CN2C[C@H]3CCC[C@@]3(COCC3CCOCC3)C2)no1` ?
Result: -91.9

Query: Test system Plasmodium falciparum; read-out INHIBITION; what value for CN(C)CCn1nc(C2CCN(Cc3ccccc3)C2)c2cccnc21 (stereo unspecified) ?
Result: 71.9

Query: Test system Plasmodium falciparum; read-out INHIBITION; what value for CC1(c2ccccc2)CCCN(Cc2cncn2C2CCCC2)C1 (stereo unspecified) ?
Result: 91

Query: Test system Plasmodium falciparum; read-out INHIBITION; what value for CCc1cnc(N)nc1NC(C)c1ccc(C)c(C)c1 (stereo unspecified) ?
Result: 73.8

Query: Test system Plasmodium falciparum; read-out INHIBITION; what value for `Cc1cc(CN2C[C@@H]3COC[C@]3(CNC(=O)N3CCCC3)C2)no1` ?
Result: -22.5

Query: Test system Plasmodium falciparum; read-out INHIBITION; what value for `CC(C)(C)n1cc(C(=O)NCCCn2ccnc2)c2cccnc21` ?
Result: -3.93

Query: Test system Plasmodium falciparum; read-out INHIBITION; what value for `CN(C)CCN1CCO[C@H]2CN(Cc3ccccn3)C[C@H]21` ?
Result: 11.1

Query: Test system Plasmodium falciparum; read-out INHIBITION; what value for `O=C(NC[C@]12COC[C@H]1CN(Cc1ccncc1)C2)c1ccno1` ?
Result: -67.3

All figures here come from ChEMBL document CHEMBL4513216.
